src = PubChem BioAssay (Tox21)

Experiment: qHTS assay to identify small molecule antagonists of the estrogen related receptor signaling pathway with the pleiotropic PPARgamma coactivator (PGC) from Tox21 10K library - cell viability counter screen (AID 1224840); note: nearly all actives have a fitted effect of over 40% in size
Settings: PGC/ERR reporter cells viability, CellTiter-Fluor, 17.5 h; series mostly up to 92.4 µM
Results filed as inconclusive are left out. Activity calls are given as the source filed them. Calls come from the whole dose curve; as a rule, active = well fitted cell-killing curve with a large enough effect in the repeat runs (not every such curve was filed as active); inconclusive = weak or mixed curves, or effect the other way; inactive = no such curve, though single readings can be large or run the other way.
Classes used: TRUE (active), FALSE (inactive)

>  <molecule>
O=c1[nH]c2cc(Cl)ccc2n1C1CCNCC1

>  <group>
FALSE

$$$$
>  <molecule>
Cc1ccc(C)c2ccccc12

>  <group>
FALSE

$$$$
>  <molecule>
CC(C)(C)c1ccc(OP(=O)(Oc2ccccc2)Oc2ccccc2)cc1

>  <group>
FALSE

$$$$
>  <molecule>
C[C@]12Cc3cn[nH]c3C[C@@H]1CC[C@@H]1[C@@H]2CC[C@@]2(C)[C@H]1CC[C@]2(C)O

>  <group>
FALSE

$$$$
>  <molecule>
COC(=O)/C=C(\C)OP(=O)(OC)OC

>  <group>
FALSE

$$$$
>  <molecule>
O=S(=O)(NS(=O)(=O)C(F)(F)F)C(F)(F)F

>  <group>
FALSE

$$$$
>  <molecule>
O=C(NC(=O)c1ccccc1Cl)Nc1ccc(OC(F)(F)F)cc1

>  <group>
FALSE

$$$$
>  <molecule>
CC(C)=CC1C(C(=O)OC(C#N)c2cccc(Oc3ccccc3)c2)C1(C)C (stereo unspecified)

>  <group>
FALSE

$$$$
>  <molecule>
Cc1ccc([N+](=O)[O-])[c]2c1[O][Hg]2

>  <group>
TRUE

$$$$
>  <molecule>
[F][Sn]([c]1ccccc1)([c]1ccccc1)[c]1ccccc1

>  <group>
TRUE

$$$$
>  <molecule>
O=[N+]([O-])c1cccc2cccc([N+](=O)[O-])c12

>  <group>
FALSE

$$$$
